Data provenance is ChEMBL document CHEMBL5154888.

Molecular target: Glutamate NMDA receptor; Grin1/Grin2a (Rattus norvegicus, UniProt P35439+Q00959)
Sequence (Q00959 whole entry, other chains not shown): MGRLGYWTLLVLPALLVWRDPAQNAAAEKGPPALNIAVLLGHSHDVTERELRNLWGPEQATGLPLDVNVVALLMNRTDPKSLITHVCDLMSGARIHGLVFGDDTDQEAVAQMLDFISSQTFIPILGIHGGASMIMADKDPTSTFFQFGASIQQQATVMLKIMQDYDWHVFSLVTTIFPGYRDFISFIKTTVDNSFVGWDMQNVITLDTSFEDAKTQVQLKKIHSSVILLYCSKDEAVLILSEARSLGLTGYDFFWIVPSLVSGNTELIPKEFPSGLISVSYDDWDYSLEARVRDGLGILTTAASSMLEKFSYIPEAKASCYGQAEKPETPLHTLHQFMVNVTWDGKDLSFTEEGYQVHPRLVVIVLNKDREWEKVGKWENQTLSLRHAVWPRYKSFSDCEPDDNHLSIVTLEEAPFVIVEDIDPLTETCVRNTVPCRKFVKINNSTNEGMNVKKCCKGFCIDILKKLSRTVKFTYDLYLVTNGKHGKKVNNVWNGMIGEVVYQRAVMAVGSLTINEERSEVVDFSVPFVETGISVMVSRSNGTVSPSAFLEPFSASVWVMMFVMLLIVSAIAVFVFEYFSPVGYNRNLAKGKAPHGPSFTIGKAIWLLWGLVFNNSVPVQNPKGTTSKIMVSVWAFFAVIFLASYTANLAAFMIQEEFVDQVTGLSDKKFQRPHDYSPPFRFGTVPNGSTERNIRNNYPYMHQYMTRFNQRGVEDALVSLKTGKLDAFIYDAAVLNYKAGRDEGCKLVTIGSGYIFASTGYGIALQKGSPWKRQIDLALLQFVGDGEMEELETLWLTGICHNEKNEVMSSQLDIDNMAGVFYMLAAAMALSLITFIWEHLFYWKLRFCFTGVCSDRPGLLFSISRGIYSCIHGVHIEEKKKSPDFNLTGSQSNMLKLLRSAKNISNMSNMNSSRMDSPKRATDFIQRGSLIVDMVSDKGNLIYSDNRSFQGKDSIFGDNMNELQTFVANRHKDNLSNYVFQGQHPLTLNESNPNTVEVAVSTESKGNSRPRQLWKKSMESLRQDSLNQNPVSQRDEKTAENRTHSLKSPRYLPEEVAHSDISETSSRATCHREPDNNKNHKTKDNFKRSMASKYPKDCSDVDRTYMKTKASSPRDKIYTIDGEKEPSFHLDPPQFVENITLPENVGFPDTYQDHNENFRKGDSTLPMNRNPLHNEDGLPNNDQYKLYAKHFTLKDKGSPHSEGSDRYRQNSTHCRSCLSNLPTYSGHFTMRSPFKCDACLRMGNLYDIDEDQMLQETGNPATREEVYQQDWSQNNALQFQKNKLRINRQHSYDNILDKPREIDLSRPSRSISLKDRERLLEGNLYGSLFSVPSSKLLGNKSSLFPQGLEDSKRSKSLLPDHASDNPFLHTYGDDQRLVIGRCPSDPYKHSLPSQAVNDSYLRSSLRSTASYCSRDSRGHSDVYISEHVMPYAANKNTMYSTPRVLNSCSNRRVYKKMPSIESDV
Experiment: Inhibition of eGFP-tagged rat GluN1-1a/GluN2A transfected in human tsA201 cells assessed as inhibition glutamate-induced current measured at -65 mV holding potential applied for 10 secs by whole-cell patch-clamp method
Measured metric: pIC50
Kindly note that pIC50 refers to -log10 of the concentration in mol/L and answer with the value alone.

[Q] What measured pIC50 goes with CNC1(c2ccccc2Cl)CCCCC1=O (stereo unspecified) [KETAMINE] ?
[A] 6.00

---

Target: Glutamate NMDA receptor
Assay: Inhibition of NMDA receptor in NMDA-stimulated rat cerebellar granule neurons assessed as measuring intracellular calcium concentration in presence of glycine by Fura2-AM dye based fluorescence assay
Settings: cerebellar granule neurone
Measured metric: IC50 (µM)
Respond numerically; units are µM and should not be typed.

compound="CN(C)C12CC3CC(C)(CC(C1)c1cc([N+](=O)[O-])ccc13)C2 (centres undefined)" display_unit=µM measured=309

[Q] Give recorded IC50 with Glutamate NMDA receptor for the following compound: CC(=O)c1ccc2c(c1)C1CC3(C)CC2CC(N)(C1)C3 (centres undefined)
[A] 323

[Q] Give recorded IC50 with Glutamate NMDA receptor for the following compound: CC12CC3CC(N)(CC(C1)c1cc([N+](=O)[O-])ccc13)C2 (centres undefined)
[A] 164

[Q] Give recorded IC50 with Glutamate NMDA receptor for the following compound: "COc1cc2c(cc1OC)C1CC3(C)CC2CC(N)(C1)C3"
[A] 517

---

Experiment: in vitro
Details: PAMPA
Description: Permeability of the compound by PAMPA-BBB assay
Measured metric: Papp (×10⁻⁶ cm/s)
Respond numerically; units are ×10⁻⁶ cm/s and should not be typed.

[Q] What measured Papp goes with CCn1cc(C(=O)O)c(=O)c2cc(F)c(N3CCNC(C)C3)c(F)c21 (stereo unspecified) [LOMEFLOXACIN] ?
[A] 0.86
